Target: proteinase K (Parengyodontium album, UniProt P06873)
Sequence (P06873 106-384): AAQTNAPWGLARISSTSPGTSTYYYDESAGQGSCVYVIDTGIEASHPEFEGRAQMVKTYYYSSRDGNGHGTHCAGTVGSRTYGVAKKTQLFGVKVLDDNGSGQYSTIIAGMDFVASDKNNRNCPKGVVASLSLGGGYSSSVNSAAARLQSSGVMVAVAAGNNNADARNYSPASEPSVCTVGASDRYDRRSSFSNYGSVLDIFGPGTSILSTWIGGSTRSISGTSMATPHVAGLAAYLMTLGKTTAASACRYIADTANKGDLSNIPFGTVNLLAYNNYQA
Test: in vitro
Details: proteinase K (isolated protease)
Non-standard residues stand in square brackets, D forms with d. Residues, ends and D or L forms follow the SMILES beside them. Cya = N[C@@H](CS(=O)(=O)O)C(=O)O

COMPOUND	metabolised at 0.5 h, 2 mg/mL
C[C@@H](O)[C@H](NC(=O)[C@H](CS(=O)(=O)O)NC(=O)CNC(=O)[C@H](CCCNC(=N)N)NC(=O)CN)C(=O)N1CCC[C@H]1C(=O)O [ALG-1001] (H-GRG[Cya]TP-OH; N-terminus and C-terminus assumed)	~50%

Data provenance: patent US20250135012A1
